# Species on record: Mus musculus
# Procedure summary: Anticonvulsant activity in Albino CF1 mouse by 6-Hz psychomotor seizure test at 44 mA current
# Type: functional
For each entry below, report its ED50 value.
Provide the reading as a plain figure in mg/kg.

Ask | So what's the measured ED50 for this one? CCCC(CCC)C(=O)NC(N)=O
Reply | 105

Ask | So what's the measured ED50 for this one? CCC[C@@H](C(=O)NC(N)=O)C(C)C
Reply | 56

Ask | So what's the measured ED50 for this one? CCC[C@H](C(=O)NC(N)=O)C(C)C
Reply | 75

Ask | So what's the measured ED50 for this one? CC(C)C(C(=O)NC(N)=O)C(C)C
Reply | 49
